Taken from the supplement of paper PMC9170038.

- Test system: MS2 coat protein
- test-details: apparent KD of MS2 coat protein; designed switch direction (-1 OFF switch, 1 ON switch): 1; higher = weaker reporter binding
- details: input ligand: none
property-name: apparent KD of MS2 coat protein (nM)

GGCAGGUGCAGGCUUGCUUGCACCUGGAGACAUGAGGAUCACCCAUGUUUGGGACAAGCUUUGCUCCUCGUCUUUUC [JL ViennaUCT Isusreraar mod 7] (Eterna round: R96, puzzle: Sensor for hsa-mir-208a) = 775
UUAAUAAUGAUAGGAUAUACAUGAGGAAUUCUCGUAGAAGGAUCAUGACAUGAGGAUCACCCAUGUAACGCUCCGUAGAGCGUA [Mat - Same State NG 1 - JL mod - D36] (Eterna round: R96, puzzle: Same State NG 1) = 447
